B1: CPEB3 Ribozyme (parent)
chain: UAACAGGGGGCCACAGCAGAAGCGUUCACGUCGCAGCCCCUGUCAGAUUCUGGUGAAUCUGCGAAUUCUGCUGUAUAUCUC

Variants of: B1
Experiment summary: self-cleavage, relative activity (ratio to wild type); higher = more cleavage; in vitro, sequencing
Quick rule: self-cleavage of at least 0.3 means 1 (yes), below that means 0 (no).

// known answers, use as guide
G8A A47U
0 (no)
U41A U60C
0 (no)
U25G C37U
0 (no)
G9U C40A
0 (no)
U41C A47U
1 (yes)

Has G52U U67A a recorded self-cleavage greater than or equal to 0.3?
1 (yes)

Has A15C G33C a recorded self-cleavage greater than or equal to 0.3?
0 (no)

Has C11U U31G a recorded self-cleavage greater than or equal to 0.3?
0 (no)

Data origin: the RNAGym collection of RNA variant scans (doi:10.1093/nar/gkz1192)
